Reported Compound Remaining at 60 min (%) by item:
# Procedure text: Lung S9 metabolism
# Assay type: in vitro ADME, human
# Conditions used: human lung S9, 1 μM compound, 1 mg/mL S9 protein, NADPH and PAPS
Respond with the bare value in %.

Examples with their reported Compound Remaining at 60 min (%) follow.
Molecule | Property measured | Unit of measure | Recorded measurement
CCc1cc(O)c(F)cc1-c1ccc2c(-c3nc4c([nH]3)CN(C)[C@H](C(=O)N3CCN(C)C[C@@H]3C)C4)n[nH]c2c1 [Compound C-3, reference compound] | Compound Remaining at 60 min (%) | % | 14
CCCN1Cc2[nH]c(-c3n[nH]c4cc(-c5ccc(O)cc5CC)ccc34)nc2C[C@H]1C(=O)N1C[C@@H]2C[C@H]1CN2C | Compound Remaining at 60 min (%) | % | 81
CCc1cc(O)ccc1-c1ccc2c(-c3nc4c([nH]3)CN(C)[C@H](C(=O)N3CCN(CCO)C[C@H]3C)C4)n[nH]c2c1 | Compound Remaining at 60 min (%) | % | 80
CCc1cc(O)ccc1-c1ccc2c(-c3nc4c([nH]3)CN(C(C)C)[C@H](C(=O)N3CCCN(C)CC3)C4)n[nH]c2c1 | Compound Remaining at 60 min (%) | % | 88
CCc1cc(O)ccc1-c1ccc2c(-c3nc4c([nH]3)CN(C(C)C)[C@H](C(=O)N3CC[C@H](N(C)C)C3)C4)n[nH]c2c1 | Compound Remaining at 60 min (%) | % | 82

Now consider the entry below.
Query: Quick one: Compound Remaining at 60 min (%) for CCc1cc(O)c(F)cc1-c1ccc2c(-c3nc4c([nH]3)CN(C)[C@H](C(=O)N3CCN(CCO)C[C@H]3C)C4)n[nH]c2c1 [Compound C-5, reference compound] ?
Response: 8

---

# Target desc: JAK2 (Homo sapiens (Human), UniProt O60674)
# Sequence (O60674 whole entry): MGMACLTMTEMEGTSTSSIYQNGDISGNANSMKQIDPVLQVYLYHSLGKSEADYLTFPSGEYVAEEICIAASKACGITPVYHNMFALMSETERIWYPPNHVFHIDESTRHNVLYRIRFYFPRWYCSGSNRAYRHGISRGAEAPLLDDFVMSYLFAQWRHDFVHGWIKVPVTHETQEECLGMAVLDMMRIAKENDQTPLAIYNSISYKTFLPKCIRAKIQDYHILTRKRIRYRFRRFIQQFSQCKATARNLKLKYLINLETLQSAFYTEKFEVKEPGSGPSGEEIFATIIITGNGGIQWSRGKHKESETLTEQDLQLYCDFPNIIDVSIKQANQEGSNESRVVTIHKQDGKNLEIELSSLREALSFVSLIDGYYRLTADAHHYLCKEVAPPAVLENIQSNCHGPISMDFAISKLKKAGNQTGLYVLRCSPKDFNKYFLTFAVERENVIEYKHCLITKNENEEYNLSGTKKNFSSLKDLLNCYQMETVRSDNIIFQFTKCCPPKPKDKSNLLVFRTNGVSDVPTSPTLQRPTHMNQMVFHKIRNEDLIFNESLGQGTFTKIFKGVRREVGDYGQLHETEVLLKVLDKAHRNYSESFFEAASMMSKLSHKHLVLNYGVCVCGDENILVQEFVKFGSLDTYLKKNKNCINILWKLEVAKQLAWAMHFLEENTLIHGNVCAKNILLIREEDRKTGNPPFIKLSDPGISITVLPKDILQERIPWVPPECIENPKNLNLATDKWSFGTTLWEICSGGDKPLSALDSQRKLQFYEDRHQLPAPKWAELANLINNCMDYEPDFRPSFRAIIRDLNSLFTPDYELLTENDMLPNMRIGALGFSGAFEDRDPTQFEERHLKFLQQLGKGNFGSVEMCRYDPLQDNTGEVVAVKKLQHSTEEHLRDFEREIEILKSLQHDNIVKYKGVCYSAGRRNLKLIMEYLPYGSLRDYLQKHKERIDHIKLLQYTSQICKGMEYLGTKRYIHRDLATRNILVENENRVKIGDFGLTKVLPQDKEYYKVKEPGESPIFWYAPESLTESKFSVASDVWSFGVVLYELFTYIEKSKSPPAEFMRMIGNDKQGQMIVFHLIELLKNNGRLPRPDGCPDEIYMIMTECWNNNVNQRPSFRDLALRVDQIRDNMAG
# Procedure text: Biochemical JAK kinase assay (LanthaScreen), JAK2
Property measured: JAK2 pKi

Compound | Recorded measurement
CCc1cc(O)ccc1-c1ccc2c(-c3nc4c([nH]3)CN(C(C)C)[C@H](C(=O)N3CC[C@H](N(C)C)C3)C4)n[nH]c2c1 [Compound 6] | 10.4
CCc1cc(O)ccc1-c1ccc2c(-c3nc4c([nH]3)CN(C)[C@H](C(=O)N3CCN(C)C[C@@H]3C)C4)n[nH]c2c1 [Compound 3] | 10.4
CCc1cc(O)ccc1-c1ccc2c(-c3nc4c([nH]3)CN(C)[C@H](C(=O)N3CCN(CCO)C[C@H]3C)C4)n[nH]c2c1 [Compound 5] | 10.5

Query: Return reported JAK2 pKi; argument: CCc1cc(O)ccc1-c1ccc2c(-c3nc4c([nH]3)CN(C(C)C)[C@H](C(=O)N3CCCN(C)CC3)C4)n[nH]c2c1 [Compound 4]
Response: 10.4

---

# Procedure text: Lung S9 metabolism
# Assay type: in vitro ADME, human
# Conditions used: qualitative, O-sulfate metabolite peak in human lung S9

Compound | Sulfate Appearance
CCc1cc(O)ccc1-c1ccc2c(-c3nc4c([nH]3)CN(C)[C@H](C(=O)N3CCN(C)C[C@@H]3C)C4)n[nH]c2c1 | Yes
CCc1cc(O)ccc1-c1ccc2c(-c3nc4c([nH]3)CN(C)[C@H](C(=O)N3CCN(CCO)C[C@H]3C)C4)n[nH]c2c1 | Yes
CCc1cc(O)c(F)cc1-c1ccc2c(-c3nc4c([nH]3)CN(C)[C@H](C(=O)N3CCN(C)C[C@@H]3C)C4)n[nH]c2c1 [Compound C-3, reference compound] | Yes

---

# Target desc: JAK1 (Homo sapiens (Human), UniProt P23458)
# Sequence (P23458 whole entry): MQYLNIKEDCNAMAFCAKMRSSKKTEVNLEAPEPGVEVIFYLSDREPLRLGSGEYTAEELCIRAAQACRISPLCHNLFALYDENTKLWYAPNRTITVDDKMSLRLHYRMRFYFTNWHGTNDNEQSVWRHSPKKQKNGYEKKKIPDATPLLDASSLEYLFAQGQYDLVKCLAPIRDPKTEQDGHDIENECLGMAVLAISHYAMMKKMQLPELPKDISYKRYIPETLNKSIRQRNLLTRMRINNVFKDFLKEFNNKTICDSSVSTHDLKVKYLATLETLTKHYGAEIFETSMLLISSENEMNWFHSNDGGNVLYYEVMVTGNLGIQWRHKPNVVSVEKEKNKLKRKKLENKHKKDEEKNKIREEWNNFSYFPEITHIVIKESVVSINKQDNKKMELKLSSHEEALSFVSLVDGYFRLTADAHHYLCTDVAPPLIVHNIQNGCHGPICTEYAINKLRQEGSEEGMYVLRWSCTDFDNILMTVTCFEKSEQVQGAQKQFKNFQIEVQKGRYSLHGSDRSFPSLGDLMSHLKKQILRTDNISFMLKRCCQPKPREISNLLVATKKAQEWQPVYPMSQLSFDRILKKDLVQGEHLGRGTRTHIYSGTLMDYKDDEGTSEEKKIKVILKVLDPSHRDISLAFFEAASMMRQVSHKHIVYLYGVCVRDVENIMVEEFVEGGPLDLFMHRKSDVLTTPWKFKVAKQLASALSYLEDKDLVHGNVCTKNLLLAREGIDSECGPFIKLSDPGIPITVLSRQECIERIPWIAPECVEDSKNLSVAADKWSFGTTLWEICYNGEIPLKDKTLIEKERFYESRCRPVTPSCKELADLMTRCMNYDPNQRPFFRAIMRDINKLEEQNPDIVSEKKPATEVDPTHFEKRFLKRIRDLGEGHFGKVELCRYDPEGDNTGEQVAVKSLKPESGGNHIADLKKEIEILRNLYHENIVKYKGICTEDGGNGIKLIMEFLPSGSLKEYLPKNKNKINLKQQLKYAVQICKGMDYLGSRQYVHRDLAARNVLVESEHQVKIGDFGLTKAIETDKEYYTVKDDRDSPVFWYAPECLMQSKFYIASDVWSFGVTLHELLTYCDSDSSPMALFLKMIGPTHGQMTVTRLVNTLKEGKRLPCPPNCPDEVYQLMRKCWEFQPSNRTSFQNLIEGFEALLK
# Procedure text: Biochemical JAK kinase assay (LanthaScreen), JAK1
# Conditions used: ATP at Km 25 μM; pIC50 converted with Cheng-Prusoff
Property measured: JAK1 pKi
Respond with the number and no other words.

For orientation, consider the following solved cases.
Compound | Target desc | JAK1 pKi
CCc1cc(O)c(F)cc1-c1ccc2c(-c3nc4c([nH]3)CN(C(C)C)[C@H](C(=O)N3CCCN(C)CC3)C4)n[nH]c2c1 [Compound C-4, reference compound] | JAK1 (Homo sapiens (Human), UniProt P23458) | 10.0
CCCN1Cc2[nH]c(-c3n[nH]c4cc(-c5cc(F)c(O)cc5CC)ccc34)nc2C[C@H]1C(=O)N1CCN(CCO)CC1 [Compound C-1, reference compound] | JAK1 (Homo sapiens (Human), UniProt P23458) | 10.2
CCCN1Cc2[nH]c(-c3n[nH]c4cc(-c5ccc(O)cc5CC)ccc34)nc2C[C@H]1C(=O)N1C[C@@H]2C[C@H]1CN2C | JAK1 (Homo sapiens (Human), UniProt P23458) | 10.3
CCCN1Cc2[nH]c(-c3n[nH]c4cc(-c5ccc(O)cc5CC)ccc34)nc2C[C@H]1C(=O)N1CCN(CCO)CC1 | JAK1 (Homo sapiens (Human), UniProt P23458) | 10.2
CCCN1Cc2[nH]c(-c3n[nH]c4cc(-c5cc(F)c(O)cc5CC)ccc34)nc2C[C@H]1C(=O)N1C[C@@H]2C[C@H]1CN2C [Compound C-2, reference compound] | JAK1 (Homo sapiens (Human), UniProt P23458) | 10.3

Query: Returns the measured JAK1 pKi for the input compound. Input: CCc1cc(O)c(F)cc1-c1ccc2c(-c3nc4c([nH]3)CN(C)[C@H](C(=O)N3CCN(CCO)C[C@H]3C)C4)n[nH]c2c1 [Compound C-5, reference compound]
Response: 10.1

---

# Target desc: UniProtKB P52333
# Sequence (P52333 whole entry): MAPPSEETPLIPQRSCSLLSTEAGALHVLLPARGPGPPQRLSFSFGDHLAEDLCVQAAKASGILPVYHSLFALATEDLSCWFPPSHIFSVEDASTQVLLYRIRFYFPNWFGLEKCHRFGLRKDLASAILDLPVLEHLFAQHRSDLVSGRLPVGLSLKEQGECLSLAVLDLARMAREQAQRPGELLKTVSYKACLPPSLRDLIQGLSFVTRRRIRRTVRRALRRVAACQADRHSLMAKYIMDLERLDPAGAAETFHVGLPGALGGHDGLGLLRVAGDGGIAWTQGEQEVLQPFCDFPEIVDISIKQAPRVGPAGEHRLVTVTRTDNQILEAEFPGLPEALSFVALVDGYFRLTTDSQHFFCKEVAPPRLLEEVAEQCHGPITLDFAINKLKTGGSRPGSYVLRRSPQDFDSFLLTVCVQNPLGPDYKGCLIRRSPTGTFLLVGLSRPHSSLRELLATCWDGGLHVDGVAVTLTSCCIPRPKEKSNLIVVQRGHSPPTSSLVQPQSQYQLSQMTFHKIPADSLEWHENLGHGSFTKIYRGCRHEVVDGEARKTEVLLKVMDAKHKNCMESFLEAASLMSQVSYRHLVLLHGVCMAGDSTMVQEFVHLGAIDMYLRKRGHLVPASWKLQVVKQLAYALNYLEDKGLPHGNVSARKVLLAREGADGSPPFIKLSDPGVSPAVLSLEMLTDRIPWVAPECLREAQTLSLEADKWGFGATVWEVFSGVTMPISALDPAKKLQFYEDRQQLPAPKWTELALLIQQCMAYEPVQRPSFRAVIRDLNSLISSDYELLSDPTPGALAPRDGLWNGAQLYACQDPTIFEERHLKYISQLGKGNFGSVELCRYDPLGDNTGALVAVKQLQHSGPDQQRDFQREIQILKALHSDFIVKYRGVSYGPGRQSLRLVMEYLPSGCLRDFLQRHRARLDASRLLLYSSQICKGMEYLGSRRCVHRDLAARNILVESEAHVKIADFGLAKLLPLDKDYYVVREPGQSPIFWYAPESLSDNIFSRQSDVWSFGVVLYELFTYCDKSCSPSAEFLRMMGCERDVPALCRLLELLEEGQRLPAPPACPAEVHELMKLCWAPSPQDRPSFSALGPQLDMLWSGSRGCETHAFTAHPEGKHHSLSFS
# Format: biochemical
Property measured: JAK3 PKi
Provide a numeric answer; units are not to be included.

Compound | Target desc | JAK3 PKi
CCCN1Cc2[nH]c(-c3n[nH]c4cc(-c5cc(F)c(O)cc5CC)ccc34)nc2C[C@H]1C(=O)N1C[C@@H]2C[C@H]1CN2C [Compound C-2, reference compound] | UniProtKB P52333 | 9.9

Query: Fill blank: measured JAK3 PKi of the compound CCCN1Cc2[nH]c(-c3n[nH]c4cc(-c5cc(F)c(O)cc5CC)ccc34)nc2C[C@H]1C(=O)N1CCN(CCO)CC1 [Compound C-1, reference compound] is ____.
Response: 9.7

Query: JAK3 PKi for CCc1cc(O)ccc1-c1ccc2c(-c3nc4c([nH]3)CN(C(C)C)[C@H](C(=O)N3CCCN(C)CC3)C4)n[nH]c2c1 ?
Response: 10.1

Query: Which measured JAK3 PKi value corresponds to CCc1cc(O)ccc1-c1ccc2c(-c3nc4c([nH]3)CN(C(C)C)[C@H](C(=O)N3CC[C@H](N(C)C)C3)C4)n[nH]c2c1 ?
Response: 10.0

Query: Name the recorded JAK3 PKi for CCc1cc(O)c(F)cc1-c1ccc2c(-c3nc4c([nH]3)CN(C(C)C)[C@H](C(=O)N3CCCN(C)CC3)C4)n[nH]c2c1 [Compound C-4, reference compound] .
Response: 9.8

---

# Procedure text: Lung S9 metabolism
# Type: in vitro ADME, human
# Conditions used: qualitative, O-sulfate metabolite peak in human lung S9

Compound | Sulfate Appearance
CCc1cc(O)c(F)cc1-c1ccc2c(-c3nc4c([nH]3)CN(C)[C@H](C(=O)N3CCN(CCO)C[C@H]3C)C4)n[nH]c2c1 [Compound C-5, reference compound] | Yes
CCCN1Cc2[nH]c(-c3n[nH]c4cc(-c5ccc(O)cc5CC)ccc34)nc2C[C@H]1C(=O)N1CCN(CCO)CC1 [Compound 1] | Yes
CCCN1Cc2[nH]c(-c3n[nH]c4cc(-c5ccc(O)cc5CC)ccc34)nc2C[C@H]1C(=O)N1C[C@@H]2C[C@H]1CN2C [Compound 2] | Yes

---

# Procedure text: Lung and plasma drug concentration in the murine IL-13 pSTAT6 model
# Assay type: in vivo
# Conditions used: Balb/c, mouse, other: oral aspiration, 50 µg/mouse; lung ng/g to plasma ng/mL at 5 hours, mice, oral aspiration; read-out: Lung to Plasma ratio at 5 hr
# Procedure: Assay 3: Murine (Mouse) Model of IL-13 Induced pSTAT6 Induction in Lung Tissue Adult Balb/c mice from Harlan were used in the assay. […] Animals were placed in lateral recumbency post dose and monitored for full recovery from anesthesia before being returned to their home cage. […] Plasma and lung levels of test compound were determined by LC-MS analysis against analytical standards constructed into a standard curve in the test matrix. […]
Property measured: Kp at 5 h
Number, no unit, nothing else.

Worked examples, 4 compounds total:
Substance smiles | Recorded measurement
CCCN1Cc2[nH]c(-c3n[nH]c4cc(-c5ccc(O)cc5CC)ccc34)nc2C[C@H]1C(=O)N1CCN(CCO)CC1 | 1260
CCc1cc(O)ccc1-c1ccc2c(-c3nc4c([nH]3)CN(C)[C@H](C(=O)N3CCN(CCO)C[C@H]3C)C4)n[nH]c2c1 | 418
CCCN1Cc2[nH]c(-c3n[nH]c4cc(-c5ccc(O)cc5CC)ccc34)nc2C[C@H]1C(=O)N1C[C@@H]2C[C@H]1CN2C | 1340
CCc1cc(O)ccc1-c1ccc2c(-c3nc4c([nH]3)CN(C(C)C)[C@H](C(=O)N3CCCN(C)CC3)C4)n[nH]c2c1 | 788

Moving on to another compound below.
Query: Value lookup for Kp at 5 h; key = CCc1cc(O)ccc1-c1ccc2c(-c3nc4c([nH]3)CN(C(C)C)[C@H](C(=O)N3CC[C@H](N(C)C)C3)C4)n[nH]c2c1
Response: 1030

Data provenance is patent US10836763B2.
